assay_info: Cytotoxicity against human GES-1 cells after 72 hrs by MTT assay
Assay type: cell-based
conditions: GES1, 72 h
measured_attribute: IC50 (µM)
Answers are plain numbers, in µM.

Record summary for O=C(CSC(=S)N[C@H]1CCOC1=O)Nc1ccc(C(=O)/C=C/c2ccccc2Cl)cc1 : reported IC50 = 23.5

###

assay_info: Cytotoxicity against human EC9706 cells after 72 hrs by MTT assay
Format: functional, cell-based
conditions: EC9706, 72 h
measured_attribute: pIC50
One number for each entry, as −log10 of the molar value.

Record summary for O=C(CCl)Nc1ccc(C(=O)/C=C/c2ccccc2)cc1 : reported pIC50 = 5.20

Hi, could you look up pIC50 for each item in my list?
1. CCCCCCCCCCCCSC(=S)N[C@H]1CCOC1=O
2. O=C(CSC(=S)N[C@H]1CCOC1=O)Nc1ccc(C(=O)/C=C/c2ccccc2Cl)cc1
3. O=C(CSC(=S)N[C@H]1CCOC1=O)Nc1cccc(C(F)(F)F)c1
4. O=C(CCl)Nc1ccc(C(=O)/C=C/c2cccc(Cl)c2)cc1
5. O=C(CSC(=S)N[C@H]1CCOC1=O)Nc1ccc(C(=O)/C=C/c2ccc(Cl)cc2)cc1
6. O=C(CSC(=S)N[C@H]1CCOC1=O)Nc1ccc(C(=O)/C=C/c2cccc(Cl)c2)cc1
7. O=C(CCl)Nc1ccc(C(=O)/C=C/c2ccc([N+](=O)[O-])cc2)cc1
8. COc1cc(/C=C/C(=O)c2ccc(NC(=O)CCl)cc2)cc(OC)c1OC

Solution:
4.23
4.47
4.10
5.25
4.41
4.49
5.44
5.56

Hi, could you look up pIC50 for each item in my list?
1. O=c1[nH]cc(F)c(=O)[nH]1
2. O=C(CSC(=S)N[C@H]1CCOC1=O)Nc1ccc(C(=O)/C=C/c2ccccc2)cc1
3. O=C(CCl)Nc1ccc(C(=O)/C=C/c2ccc(Cl)cc2)cc1
4. Cc1ccc(NC(=O)CSC(=S)N[C@H]2CCOC2=O)cc1
5. O=C(CCl)Nc1ccc(C(=O)/C=C/c2ccc(F)c(F)c2)cc1

Solution:
4.80
4.35
5.08
4.03
5.33
